B1: LINE1-full (parent)
chain: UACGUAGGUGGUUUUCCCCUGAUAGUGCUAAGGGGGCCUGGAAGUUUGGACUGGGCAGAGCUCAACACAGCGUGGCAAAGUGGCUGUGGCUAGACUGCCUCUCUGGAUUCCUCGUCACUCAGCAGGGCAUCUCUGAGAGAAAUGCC

Variants of: B1
Experiment: self-cleavage, relative activity (ratio to wild type); higher = more cleavage; in vitro, sequencing; the parent is a self-cleaving ribozyme
Binary call on self-cleavage: Y from 1 upward, N beneath that.

The following variants have reported results that may help.
{"VARIANT DESCRIPTION": "U5A U85G", "ASSIGNED CATEGORY": "N"}
{"VARIANT DESCRIPTION": "G114A A141G", "ASSIGNED CATEGORY": "N"}
{"VARIANT DESCRIPTION": "C68U U108C", "ASSIGNED CATEGORY": "N"}

Input: Dear colleague, could you confirm whether C98U U134C has self-cleavage at or above 1?
Output: N

Input: Note, next up: U104C A141C
Output: Y

Input: Note, next up: U14C A69G
Output: N

Input: Note, next up: A57G U112C
Output: N

Input: Note, next up: A67U U104C
Output: N

Input: Note, next up: G27U A67G
Output: N

Input: Note, next up: A107G C113A
Output: Y

Input: Note, next up: U29A U45C
Output: N

Input: Note, next up: U15C U115G
Output: Y

Input: Note, next up: U104A C131U
Output: Y

Input: Note, next up: G34A G72A
Output: Y

Input: Note, next up: C3U U20A
Output: N
